# TGT: UniProt:Q4U2R8
# Sequence (Q4U2R8 whole entry): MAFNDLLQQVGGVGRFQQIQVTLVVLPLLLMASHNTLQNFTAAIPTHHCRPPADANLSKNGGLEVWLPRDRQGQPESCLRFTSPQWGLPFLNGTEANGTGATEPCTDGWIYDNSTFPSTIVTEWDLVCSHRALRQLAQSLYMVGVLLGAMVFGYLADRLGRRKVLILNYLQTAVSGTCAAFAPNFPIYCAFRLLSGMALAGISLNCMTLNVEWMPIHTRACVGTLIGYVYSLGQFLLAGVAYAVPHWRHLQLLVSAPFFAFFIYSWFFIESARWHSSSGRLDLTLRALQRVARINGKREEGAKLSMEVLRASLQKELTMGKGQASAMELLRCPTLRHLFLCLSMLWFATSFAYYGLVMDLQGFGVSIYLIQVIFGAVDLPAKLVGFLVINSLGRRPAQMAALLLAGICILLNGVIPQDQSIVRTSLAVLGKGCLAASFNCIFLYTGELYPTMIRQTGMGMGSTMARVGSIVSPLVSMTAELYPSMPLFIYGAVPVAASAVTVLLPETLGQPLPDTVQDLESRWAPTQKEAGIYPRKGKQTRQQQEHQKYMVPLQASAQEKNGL
# PROTOCOL_DETAILS: TP_TRANSPORTER: inhibition of Urate uptake (Urate: 300 uM, DIDS: 2000 uM) in OAT1-expressing S2 cells
# Assay type: functional, cell-based
# Set-up: scale not given: the % may be the effect or the level left
# APPLIED_CONDITIONS: S2 cells that express OAT1, probe urate (300 uM); read-out: Activity

SMILES_STRING | TGT | RESULT_UNIT | activity at 2000 µM
O=S(=O)(O)c1cc(N=C=S)ccc1/C=C/c1ccc(NC=S)cc1S(=O)(=O)O | UniProt:Q4U2R8 | % | 64.2

src = ChEMBL document CHEMBL2073941
